system-tested: human recombinant PLK4 (Homo sapiens (Human), UniProt O00444)
Sequence (O00444 whole entry): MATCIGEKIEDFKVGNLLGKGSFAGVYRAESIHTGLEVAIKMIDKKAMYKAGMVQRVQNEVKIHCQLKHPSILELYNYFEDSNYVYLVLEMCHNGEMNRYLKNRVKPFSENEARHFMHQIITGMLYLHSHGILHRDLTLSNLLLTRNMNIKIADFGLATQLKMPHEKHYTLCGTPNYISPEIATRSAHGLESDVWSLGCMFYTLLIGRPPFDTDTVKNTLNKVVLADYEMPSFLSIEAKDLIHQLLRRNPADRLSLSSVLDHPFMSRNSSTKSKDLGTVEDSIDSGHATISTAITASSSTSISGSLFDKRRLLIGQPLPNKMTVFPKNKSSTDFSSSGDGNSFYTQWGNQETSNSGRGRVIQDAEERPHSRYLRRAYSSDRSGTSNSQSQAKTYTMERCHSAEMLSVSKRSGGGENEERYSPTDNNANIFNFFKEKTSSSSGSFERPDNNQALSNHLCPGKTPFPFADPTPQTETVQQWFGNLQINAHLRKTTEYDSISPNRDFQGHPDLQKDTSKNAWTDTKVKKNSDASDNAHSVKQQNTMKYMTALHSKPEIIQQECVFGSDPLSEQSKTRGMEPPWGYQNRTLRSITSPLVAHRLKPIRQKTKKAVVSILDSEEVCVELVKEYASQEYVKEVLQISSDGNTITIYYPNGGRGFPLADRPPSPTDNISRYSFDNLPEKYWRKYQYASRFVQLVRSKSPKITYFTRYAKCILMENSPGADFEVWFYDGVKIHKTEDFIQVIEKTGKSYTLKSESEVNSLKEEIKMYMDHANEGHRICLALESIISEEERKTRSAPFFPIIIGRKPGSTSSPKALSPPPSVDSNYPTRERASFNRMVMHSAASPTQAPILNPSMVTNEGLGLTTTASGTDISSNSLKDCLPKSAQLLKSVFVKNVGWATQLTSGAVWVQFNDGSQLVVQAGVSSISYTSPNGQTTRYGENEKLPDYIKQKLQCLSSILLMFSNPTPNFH
assay: PLK4 Biochemical Assay (ADP-Glo)
cond: 0.5 nM PLK4, 8.0 µM ATP, 4.7 µM MBP, 6 hours at RT
pIC50: −log10 of the molar value.
observable: pIC50

COc1cnc(C)nc1Nc1n[nH]c2cc([C@@H]3C[C@]34C(=O)Nc3ccc(OC(F)(F)F)cc34)ccc12 [Example 139]; 5.50
COc1ccc2c(c1)[C@]1(C[C@H]1c1ccc3c(Nc4ncnc(N5CCS(=O)(=O)CC5)c4Cl)n[nH]c3c1)C(=O)N2 [Example 53]; 8.90
COc1ccc2c(c1)[C@]1(C[C@H]1c1ccc3c(Nc4nc(SC)ncc4OC)n[nH]c3c1)C(=O)N2 [Example 155]; 8.99

A. COc1ccc2c(c1)[C@]1(C[C@H]1c1ccc3c(Nc4nc(N(C)C)nc5c4CCC5)n[nH]c3c1)C(=O)N2 [Example 213]
B. COc1ccc2c(c1)[C@]1(C[C@H]1c1ccc3c(Nc4cccc5c4OC[C@@H]5O)n[nH]c3c1)C(=O)N2 [Example 29]
For the pair A and B , which entry has the numerically smaller recorded pIC50? Identify your selection by its label.
B

1. COc1ccc2c(c1)[C@]1(C[C@H]1c1ccc3c(Nc4ncc(C(=O)N5CC(OC)C5)cc4OC)n[nH]c3c1)C(=O)N2 [Example 235]
2. COc1ccc2c(c1)[C@]1(C[C@H]1c1ccc3c(Nc4cc(F)c(C(=O)N5CCOCC5)cc4OC)n[nH]c3c1)C(=O)N2 [Example 207]
# returns the entry with the larger pIC50; inputs 1 and 2 Answer format: the label of the selected item.
2
(2: 9.02, 1: 8.66)

###

system-tested: human recombinant Aurora B (Homo sapiens (Human), UniProt Q96GD4)
Sequence (Q96GD4 whole entry): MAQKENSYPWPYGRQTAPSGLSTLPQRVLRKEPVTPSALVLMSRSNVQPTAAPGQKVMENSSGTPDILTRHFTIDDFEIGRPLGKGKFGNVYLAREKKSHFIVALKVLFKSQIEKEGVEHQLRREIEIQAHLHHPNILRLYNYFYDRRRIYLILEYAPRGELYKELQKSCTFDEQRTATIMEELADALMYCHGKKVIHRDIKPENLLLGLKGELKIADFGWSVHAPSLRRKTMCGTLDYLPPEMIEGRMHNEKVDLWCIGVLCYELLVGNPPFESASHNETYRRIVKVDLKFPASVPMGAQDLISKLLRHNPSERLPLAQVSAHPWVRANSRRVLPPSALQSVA
assay: Aurora B Kinase Biochemical Assay (ADP-Glo)
cond: ratio of Aurora B IC50 to PLK4 IC50 (selectivity)
Experimental: Activity of human recombinant Aurora B (ThermoFisher, cat #PR9210B) was measured by quantification of adenosine diphosphate (ADP) using the ADP-Glo Kinase Assay Kit (Promega, cat #V9102). […] The simultaneous conversion of the remaining ADP to ATP and measurement of the newly synthesized ATP was achieved by addition of 20 µL Kinase Detection reagent (Promega, cat #V914B), incubation for 30 min at RT, and luminescence detection using the EnVision plate reader (PerkinElmer). […]
observable: [Aurora B IC50 (nM)]/[PLK4 IC50 (nM)]

COc1cnc(C)nc1Nc1n[nH]c2cc([C@@H]3C[C@@]34C(=O)Nc3cc(F)ccc34)ccc12; 40.8516

P. COc1ccc2c(c1)[C@]1(C[C@H]1c1ccc3c(Nc4cc(C)ccc4OC)n[nH]c3c1)C(=O)N2
Q. COc1ccc2c(c1)[C@]1(C[C@H]1c1ccc3c(Nc4nc(C)ncc4OCC4CC4)n[nH]c3c1)C(=O)N2
R. CCOc1cc(S(C)(=O)=O)cnc1Nc1n[nH]c2cc([C@@H]3C[C@@]34C(=O)Nc3ccc(Cl)cc34)ccc12
// ranking: key=[Aurora B IC50 (nM)]/[PLK4 IC50 (nM)], reverse=True Put the labels in the order asked and list them.
R, Q, P

###

system-tested: human recombinant PLK4 (Homo sapiens (Human), UniProt O00444)
assay: PLK4 Biochemical Assay (ADP-Glo)
cond: 0.5 nM PLK4, 8.0 µM ATP, 4.7 µM MBP, 6 hours at RT
observable: IC50 (nM)

# annotated cases, reported IC50 shown
COc1ccc2c(c1)[C@]1(C[C@H]1c1ccc3c(Nc4ccc([S+](C)[O-])nc4OC)n[nH]c3c1)C(=O)N2 (single isomer, unassigned) [Example 240]; 2.18
COc1ccc2c(c1)[C@]1(C[C@H]1c1ccc3c(Nc4ncncc4C(F)(F)F)n[nH]c3c1)C(=O)N2 [Example 22]; 39.8
COc1cnc(C)nc1Nc1n[nH]c2cc([C@@H]3C[C@@]34C(=O)Nc3cccc(F)c34)ccc12 [Example 129]; 34.5
COc1ccc2c(c1)[C@]1(C[C@H]1c1ccc3c(Nc4ncc(CCO)nc4OC)n[nH]c3c1)C(=O)N2 [Example 55]; 1.25
COc1ccc2c(c1)[C@]1(C[C@H]1c1ccc3c(Nc4ncc(S(=O)(=O)C(F)F)cc4OC)n[nH]c3c1)C(=O)N2 [Example 280]; 1.93

I. COc1ccc2c(c1)[C@]1(C[C@H]1c1ccc3c(Nc4nc(N5CC(O)C5)ncc4OC)n[nH]c3c1)C(=O)N2 [Example 114]
II. COc1ccc2c(c1)[C@]1(C[C@H]1c1ccc3c(Nc4ncccc4OC)n[nH]c3c1)C(=O)N2 [Example 17]
Which numeric IC50 is bigger, that of I or that of II ? Kindly state the label of the option you pick.
II
(II: 4.3 nM, I: 2.09 nM)

###

system-tested: human recombinant PLK4 (Homo sapiens (Human))
assay: PLK4 Biochemical Assay (ADP-Glo)
cond: 0.5 nM PLK4, 8.0 µM ATP, 4.7 µM MBP, 6 hours at RT
pIC50: −log10 of the molar value.
observable: pIC50

CCOc1cc(S(=O)(=O)N2CCN(C)CC2)cnc1Nc1n[nH]c2cc([C@@H]3C[C@@]34C(=O)Nc3ccc(OC)cc34)ccc12; 8.84
COc1ccc2c(c1)[C@]1(C[C@H]1c1ccc3c(Nc4nc(OC)ncc4Cl)n[nH]c3c1)C(=O)N2; 8.30
COc1ccc2c(c1)[C@]1(C[C@H]1c1ccc3c(Nc4nc(N5CC[C@@H](F)C5)ncc4OC)n[nH]c3c1)C(=O)N2; 9.00

a. COc1ccc2c(c1)[C@]1(C[C@H]1c1ccc3c(Nc4nc(C5CC5)nc(N5CC(O)C5)c4OC)n[nH]c3c1)C(=O)N2.O=C(O)C(F)(F)F
b. COc1ccc2c(c1)[C@]1(C[C@H]1c1ccc3c(Nc4nc(N5CC6(COC6)C5)ncc4OC)n[nH]c3c1)C(=O)N2
c. COc1cnc(C)nc1Nc1n[nH]c2cc([C@@H]3C[C@@]34C(=O)Nc3ccc(C)cc34)ccc12
d. COc1ccc2c(c1)[C@]1(C[C@H]1c1ccc3c(Nc4ccc(C(=O)N(C)C(C)C)nc4OC)n[nH]c3c1)C(=O)N2
Could you please sort these 4 entries by pIC50 from high to low? Order the labels as requested and give them as your answer.
d, b, a, c

a. COc1ccc2c(c1)[C@]1(C[C@H]1c1ccc3c(Nc4nc(C(C)C)nc(N5CCS(=O)(=O)CC5)c4OC)n[nH]c3c1)C(=O)N2
b. COc1ccc2c(c1)[C@]1(C[C@H]1c1ccc3c(Nc4cc(-c5ncco5)cnc4OC)n[nH]c3c1)C(=O)N2
# returns the entry with the larger pIC50; inputs a and b Returns: label corresponding to the selected item.
a

a. COc1ccc2c(c1)[C@]1(C[C@H]1c1ccc3c(Nc4ccc(C(=O)NCC(F)F)nc4OC)n[nH]c3c1)C(=O)N2
b. COc1ccc2c(c1)[C@]1(C[C@H]1c1ccc3c(Nc4ncc(C(=O)N(C)C)cc4OC)n[nH]c3c1)C(=O)N2
Please state the entry with greater pIC50 among a and b . Return value: the label identifying the chosen record.
b
(b: 8.97, a: 8.54)

###

system-tested: human recombinant Aurora B (Homo sapiens (Human))
assay: Aurora B Kinase Biochemical Assay (ADP-Glo)
cond: ratio of Aurora B IC50 to PLK4 IC50 (selectivity)
observable: [Aurora B IC50 (nM)]/[PLK4 IC50 (nM)]

Answered examples (4):
COc1ccc2c(c1)[C@]1(C[C@H]1c1ccc3c(Nc4nc(N5CCC(F)(F)CC5)ncc4OC)n[nH]c3c1)C(=O)N2 [Example 189]; 514.5455
COc1ccc2c(c1)[C@]1(C[C@H]1c1ccc3c(Nc4cc(OC)ncn4)n[nH]c3c1)C(=O)N2 [Example 14]; 3.866
COc1ccc2c(c1)[C@]1(C[C@H]1c1ccc3c(Nc4ccc(C(=O)NNC(C)C)nc4OC)n[nH]c3c1)C(=O)N2 [Example 219]; 64.2571
COc1ccc2c(c1)[C@]1(C[C@H]1c1ccc3c(Nc4ncc(C(=O)N5CCOCC5)cc4OC)n[nH]c3c1)C(=O)N2 [Example 264]; 66.6751

1. COc1ccc2c(c1)[C@]1(C[C@H]1c1ccc3c(Nc4ccc(S(=O)(=O)N(C)C)nc4OC)n[nH]c3c1)C(=O)N2 [Example 222]
2. COc1ccc2c(c1)[C@]1(C[C@H]1c1ccc3c(Nc4nc(N5CCOCC5)ncc4Cl)n[nH]c3c1)C(=O)N2 [Example 103]
3. COc1ccc2c(c1)[C@]1(C[C@H]1c1ccc3c(Nc4ncnc(N5CC(O)C5)c4Cl)n[nH]c3c1)C(=O)N2C [Example 107]
Kindly order the items shown according to [Aurora B IC50 (nM)]/[PLK4 IC50 (nM)], from the highest value down. Reply: labels, ordered per the request.
2, 1, 3
(2: 977.1102, 1: 546.4311, 3: 174.4215)

###

system-tested: human recombinant Aurora B (Homo sapiens (Human), UniProt Q96GD4)
assay: Aurora B Kinase Biochemical Assay (ADP-Glo)
cond: ratio of Aurora B IC50 to PLK4 IC50 (selectivity)
observable: [Aurora B IC50 (nM)]/[PLK4 IC50 (nM)]

COc1ccc2c(c1)[C@]1(C[C@H]1c1ccc3c(Nc4ncc(S(C)(=O)=O)cc4OC)n[nH]c3c1)C(=O)N2 [Example 193]; 138.8889

A. COc1ccc2c(c1)[C@]1(C[C@H]1c1ccc3c(Nc4cn(CCO)nc4OC)n[nH]c3c1)C(=O)N2 [Example 50]
B. COc1ccc2c(c1)[C@]1(C[C@H]1c1ccc3c(Nc4ccc(C(=O)NC(CF)CF)nc4OC)n[nH]c3c1)C(=O)N2 [Example 250]
Among A and B , which shows a numerically higher [Aurora B IC50 (nM)]/[PLK4 IC50 (nM)] result? Lab log: write the label of the selected item as the result.
B
(B: 110.6011, A: 27.4923)

These data points were gathered from patent US20230365537A1.
